Every entry's value here was drawn from patent US20250034173A1.

Attribute: Kd
# target-system: KRAS G12C (Homo sapiens (Human), UniProt P01116, G12C)
# Sequence (P01116 other isoform, or with tags, fused parts or gaps G12C): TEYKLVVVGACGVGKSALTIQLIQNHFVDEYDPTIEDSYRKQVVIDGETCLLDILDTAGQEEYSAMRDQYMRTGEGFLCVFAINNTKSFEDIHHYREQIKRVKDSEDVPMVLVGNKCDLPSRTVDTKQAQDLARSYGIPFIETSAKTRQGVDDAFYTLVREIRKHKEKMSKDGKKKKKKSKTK
# assay-summary: SPR binding affinity and kinetics, GTPγS-loaded KRAS G12C
# study-conditions: GTPγS loaded protein, geomean
Write the number in nM without appending the unit.

As a guide, the following entries are already answered.
C=C1CN2CCC[C@@]2(COc2nc3c4c(nc(-c5c(C6CC6)c(Cl)cc6[nH]nc(Cl)c56)c(F)c4n2)OC[C@@H]2COCCCN32)C1 ... 3
F/C=C1\CN2CCC[C@@]2(COc2nc3c4c(nc(-c5c(C6CC6)c(Cl)cc6[nH]ncc56)c(F)c4n2)OC[C@@H]2COCCCN32)C1 ... 4
C=C1CN2CCC[C@@]2(COc2nc3c4c(nc(-c5c(CC)c(Cl)cc6[nH]ncc56)c(F)c4n2)OC[C@@H]2COCCCN32)C1 ... 6
COC/C=C1/CN2CCC[C@@]2(COc2nc3c4c(nc(-c5c(C6CC6)c(Cl)cc6[nH]ncc56)c(F)c4n2)OC[C@@H]2COCCCN32)C1 (relative stereo) [Example 49] ... 73

Next up:
I would be grateful if you could share the reported Kd for "C=C1CN2CCC[C@@]2(COc2nc3c4c(nc(-c5c(C6(C)CC6)c(Cl)cc6[nH]ncc56)c(F)c4n2)OC[C@@H]2COCCCN32)C1" . 2
